# PROTOCOL: solvent given as SMILES
# EXPERIMENTAL SETUP: in CCCCN(CCCC)CCCC
Listed here: items and their measured solvation free energy, 298 K.

[
  {
    "SMILES STRING": "C1CCCCC1",
    "UNIT ABBREV": "kJ/mol",
    "solvation free energy, 298 K": -16.4
  },
  {
    "SMILES STRING": "ClCCl",
    "UNIT ABBREV": "kJ/mol",
    "solvation free energy, 298 K": -12
  },
  {
    "SMILES STRING": "ClCCCl",
    "UNIT ABBREV": "kJ/mol",
    "solvation free energy, 298 K": -15.3
  },
  {
    "SMILES STRING": "ClC(Cl)(Cl)Cl",
    "UNIT ABBREV": "kJ/mol",
    "solvation free energy, 298 K": -16.1
  }
]

* * *

# PROTOCOL: solvent given as SMILES
# EXPERIMENTAL SETUP: in COC(C)(C)C
We use -10 kcal/mol as the dividing line for solvation free energy, 298 K: on or above the line is rule met, below is rule not met.

[
  {
    "SMILES STRING": "CC(=O)Nc1ccc(O)cc1",
    "LABEL": "rule not met"
  },
  {
    "SMILES STRING": "CC(C)CC(C)(C)C",
    "LABEL": "rule met"
  },
  {
    "SMILES STRING": "c1ccc2c(c1)Cc1ccccc1O2",
    "LABEL": "rule not met"
  },
  {
    "SMILES STRING": "COC(=O)c1ccc(O)cc1",
    "LABEL": "rule not met"
  },
  {
    "SMILES STRING": "O=C1c2ccccc2C(=O)c2c(Cl)cccc21",
    "LABEL": "rule not met"
  },
  {
    "SMILES STRING": "CCCCCCCCCCCCCCCCCCCCCCCCC",
    "LABEL": "rule not met"
  },
  {
    "SMILES STRING": "CCCC(C)C",
    "LABEL": "rule met"
  },
  {
    "SMILES STRING": "c1ccccc1",
    "LABEL": "rule met"
  },
  {
    "SMILES STRING": "ClCCCl",
    "LABEL": "rule met"
  },
  {
    "SMILES STRING": "C1CCNCC1",
    "LABEL": "rule met"
  },
  {
    "SMILES STRING": "O=C(C(=O)c1ccccc1)c1ccccc1",
    "LABEL": "rule not met"
  },
  {
    "SMILES STRING": "C1CCCC1",
    "LABEL": "rule met"
  },
  {
    "SMILES STRING": "FC(Cl)(Cl)C(F)(Cl)Cl",
    "LABEL": "rule met"
  },
  {
    "SMILES STRING": "CC(=O)Oc1ccccc1C(=O)O",
    "LABEL": "rule not met"
  },
  {
    "SMILES STRING": "c1ccc2c(c1)Nc1ccccc1S2",
    "LABEL": "rule not met"
  },
  {
    "SMILES STRING": "CCCO",
    "LABEL": "rule met"
  },
  {
    "SMILES STRING": "O=c1c2ccccc2sc2ccccc12",
    "LABEL": "rule not met"
  },
  {
    "SMILES STRING": "CC(C)(C)Cl",
    "LABEL": "rule met"
  },
  {
    "SMILES STRING": "C1CCCCC1",
    "LABEL": "rule met"
  },
  {
    "SMILES STRING": "CCCCCCCCCCCCCCCCCCCCCCCC",
    "LABEL": "rule not met"
  },
  {
    "SMILES STRING": "c1ccc2c(c1)-c1cccc3cccc-2c13",
    "LABEL": "rule not met"
  },
  {
    "SMILES STRING": "Clc1ccc(Br)cc1",
    "LABEL": "rule met"
  },
  {
    "SMILES STRING": "COC(=O)OC",
    "LABEL": "rule met"
  },
  {
    "SMILES STRING": "c1cc2c3c(cccc3c1)CC2",
    "LABEL": "rule met"
  }
]

Origin of values: the CombiSolv-Exp solvation set (Vermeire and Green 2021)
